- Tested on: LOC_OS01G70970-cb002;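 also: purified Escherichia coli-expressed rice kinase domain construct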
- EXPERIMENTAL_PROTOCOL: thermal shift delta Tm vs DMSO control; higher = stronger stabilization (binding)
- MEASUREMENT_CONDITIONS: 12.5 µM; protein concentration 2 µM
Structures can show the parent of a compound that is named as a salt.
Listed here: items and their measured thermal shift delta Tm.
# number only, unit °C dropped from output

Answered cases to consult:
INSERT INTO assay_data (compound, target_system, measured_property, reading) VALUES
  ('CN(C)C/C=C/C(=O)Nc1cc2c(Nc3ccc(F)c(Cl)c3)ncnc2cc1O[C@H]1CCOC1 [Afatinib (BIBW2992) Dimaleate]', 'LOC_OS01G70970-cb002', 'thermal shift delta Tm', -0.12),
  ('Cc1c(C(=O)N2CCOc3ccc(-c4ccc(N)nc4)cc3C2)ccc(S(C)(=O)=O)c1F', 'LOC_OS01G70970-cb002', 'thermal shift delta Tm', 0.48),
  ('CS(=O)(=O)N1CCc2c(-c3cnc(N)nc3)nc(N3CCOCC3)nc21', 'LOC_OS01G70970-cb002', 'thermal shift delta Tm', 0.73);

# return recorded thermal shift delta Tm for entry "COc1ccc(-c2ccc3c(N4CCOCC4)nc(N4C[C@@H](C)O[C@@H](C)C4)nc3n2)cc1CO" -0.02

Given the compound Cc1ccc(NC(=O)c2ccc(CN3CCN(C)CC3)cc2)cc1Nc1nccc(-c2cccnc2)n1 [Imatinib Mesylate (STI571)] , write its reported thermal shift delta Tm. -0.12

Look up and report measured thermal shift delta Tm for this entry: "CN(c1ccccc1CNc1nc(Nc2ccc3c(c2)CC(=O)N3)ncc1C(F)(F)F)S(C)(=O)=O" 9.4

Specify measured thermal shift delta Tm for "CS(=O)(=O)CCNCc1ccc(-c2ccc3ncnc(Nc4ccc(OCc5cccc(F)c5)c(Cl)c4)c3c2)o1" . 0.26

Recall and state the measured thermal shift delta Tm for O=C1c2ccc(Nc3ccc(F)cc3F)cc2CCc2ccc(OC[C@H](O)CO)cc21 [Skepinone-L] . 0.42

Tell me thermal shift delta Tm reported for "O=C(Nc1cc(C(F)(F)F)cc(C(F)(F)F)c1)c1cc(Cl)ccc1O" 0.57

Respond only with thermal shift delta Tm recorded for COc1cc2nccc(Oc3ccc(NC(=O)C4(C(=O)Nc5ccc(F)cc5)CC4)cc3)c2cc1OC [Cabozantinib malate (XL184)] 0.57

Look up and state reported thermal shift delta Tm for "COC1(c2sc3c(N4CCOCC4)nc(-c4cnc(N)nc4)nc3c2C)COC1" 0.89

Identify thermal shift delta Tm associated with the compound "CC(C)(CCCCCC(O)CCCCCC(C)(C)C(=O)O)C(=O)O" 0.21

Please report thermal shift delta Tm for the following compound: "COc1cc(OC)cc(-c2cc3cnc(N)nc3nc2NC(=O)NC(C)(C)C)c1" 0.35

Quickly give me recorded thermal shift delta Tm for "COc1cc2ncnc(Oc3cccc(NC(=O)Nc4cc(C(C)(C)C(F)(F)F)on4)c3)c2cc1OC" 0.38

Provide thermal shift delta Tm value for the following compound: "C[C@@H](Oc1cc(-c2cnn(C3CCNCC3)c2)cnc1N)c1c(Cl)ccc(F)c1Cl" 1.7

Please look at this compound and report its thermal shift delta Tm: "C[C@@H]1CN(CC(=O)Nc2ccc3c(c2)Cc2cccc(-c4cc(=O)cc(N5CCOCC5)o4)c2S3)C[C@H](C)O1" -0.1

Kindly indicate its recorded thermal shift delta Tm. Item: "c1cncc(CN2CCC(n3ncc4c(N5CCOCC5)nc(-c5ccc6[nH]ccc6c5)nc43)CC2)c1" 0.4

Give thermal shift delta Tm for "Cc1ccc([N+](=O)[O-])cc1S(=O)(=O)N(C)/N=C/c1cnc2ccc(Br)cn12" 4.2
